measurement target: FKBP12 (Homo sapiens, UniProt P62942)
Sequence (P62942 whole entry, species assumed): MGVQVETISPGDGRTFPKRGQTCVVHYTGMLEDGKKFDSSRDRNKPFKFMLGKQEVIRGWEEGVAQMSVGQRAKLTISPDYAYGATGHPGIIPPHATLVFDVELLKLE
test details: FKBP12 Rotamase Inhibition Assay
Assay type: biochemical
run parameters: read-out: Percent Inhibition at 10 μM (rotamase)
observed property: inhibition at 10 µM (%)

Here are 2 compounds together with their reported answers.
• COc1cc(C(F)(F)C(=O)N2CCC[C@H]2C(=O)OCCCc2ccccc2)cc(OC)c1OC = 97
• COc1cc(C(F)(F)C(=O)N2CCCC[C@H]2C(=O)OC(CCCc2ccccc2)CCCc2cccnc2)cc(OC)c1OC (stereo partly shown) = 98

1. COc1cc(C(F)(F)C(=O)N2CCCC[C@H]2C(=O)OC(CCc2ccccc2)c2ccccc2)cc(OC)c1OC (stereo partly shown)
2. COc1cc(CCCOC(=O)[C@@H]2CCCN2C(=O)C(F)(F)c2cc(OC)c(OC)c(OC)c2)cc(OC)c1OC
Sorting by inhibition at 10 µM in descending order, would 1 or 2 appear first? Pick one; state its label.
1
(1: 94%, 2: 38%)
